This collection of values is drawn from patent US20220403028A1.

molecular target: cynomolgus CD3ε (recombinant, coupled to the SPR chip) (cynomolgus (Macaca fascicularis)) (UniProt Q95LI5); test: SPR (Biacore T200), CD3ε amine-coupled to CM5 chip, scFv as analyte, 1:1 Langmuir fit
So basically: is Kd under 10 nM? Then class 1. Not under? Then class 0.

Is Kd of 28-21-D09-sc04 (scFv) scFv: DIQMTQSPSSLSASVGDRVTITCQSSQSVFSNNYLAWFQQKPGQSPKRLIYSASTLASGVPSRFSGSGSGTDFTLTISSLQPEDFATYYCLGSYACSSADCYVFGTGTKVTVLGGGGGSGGGGSGGGGSGGGGSEVQLVESGGGLVQPGGSLRLSCAASGFSLSSYDMSWVRQAPGKGLAWIGASYASGPTYYASWAKGRFTISRDNSKNTVYLQMNSLRAEDTATYFCARGGWTGTSHSNIWGQGTLVTVSS strictly below 10 nM? class 1

Is Kd of 28-21-D09-sc16 (scFv) scFv: DIQMTQSPSSLSASVGDRVTITCQSSQSVFSNNYLAWYQQKPGQSPKRLIYSASTLASGVPSRFSGSGSGTDFTLTISSLQPEDFATYYCLGSYACSSADCYVFGTGTKVTVLGGGGGSGGGGSGGGGSGGGGSEVQLVESGGGLVQPGGSLRLSCAASGFSLSSYDMSWVRQAPGKGLEWIGASYASGPTYYASWAKGRFTISRDNSKNTVYLQMNSLRAEDTATYFCARGGWTGTSHSNIWGQGTLVTVSS strictly below 10 nM? class 0

Is Kd of 28-21-D09-sc19 (scFv) scFv: DIQMTQSPSSLSASVGDRVTITCQSSQSVFSNNYLAWYQQKPGQSPKRLIYSASTLASGVPSRFSGSGSGTDFTLTISSLQPEDFATYYCLGSYACSSADCYVFGTGTKVTVLGGGGGSGGGGSGGGGSGGGGSEVQLVESGGGLVQPGGSLRLSCAASGFSLSSYDMSWVRQAPGKGLEWIGASYASGPTYYASWAKGRFTISRDNSKNTVYLQMNSLRAEDTAVYYCARGGWTGTSHSNIWGQGTLVTVSS strictly below 10 nM? class 0

Is Kd of 28-21-D09-sc18 (scFv) scFv: DIQMTQSPSSLSASVGDRVTITCQSSQSVFSNNYLAWYQQKPGQSPKRLIYSASTLASGVPSRFSGSGSGTHFTLTISSLQPEDFATYYCLGSYACSSADCYVFGTGTKVTVLGGGGGSGGGGSGGGGSGGGGSEVQLVESGGGLVQPGGSLRLSCAASGFSLSSYDMSWVRQAPGKGLEWIGASYASGPTYYASWAKGRFTISRDNSKNTVYLQMNSLRAEDTAVYYCARGGWTGTSHSNIWGQGTLVTVSS strictly below 10 nM? class 0

Is Kd of 28-21-D09-sc15 (scFv) scFv: DIQMTQSPSSLSASVGDRVTITCQSSQSVFSNNYLAWYQQKPGQSPKRLIYSASTLASGVPSRFSGSGSGTHFTLTISSLQPEDFATYYCLGSYACSSADCYVFGTGTKVTVLGGGGGSGGGGSGGGGSGGGGSEVQLVESGGGLVQPGGSLRLSCAASGFSLSSYDMSWVRQAPGKGLEWIGASYASGPTYYASWAKGRFTISRDNSKNTVYLQMNSLRAEDTATYFCARGGWTGTSHSNIWGQGTLVTVSS strictly below 10 nM? class 0
